ASSAY_SYSTEM: UniProtKB P61169
EXPERIMENT: In vitro Dopamine receptor D2 affinity by using [3H]spiperone as the radioligand in rat limbic system at 1 uM concentration of compound; value may range from 238 to 401
Assay type: tissue-based
ENDPOINT_LABEL: Ki (nM)
Give a bare numeral; the unit nM is implied.

Look at this compound and give its reported Ki. c1ccc2nc(CCN3CCc4[nH]c5ccccc5c4C3)ccc2c1
331

----------
ASSAY_SYSTEM: UniProt:P61169
EXPERIMENT: In vitro Dopamine receptor D2 affinity by using [3H]spiperone as the radioligand in rat limbic system at 1 uM concentration of compound; value may range from 72 to 141
Type: tissue-based
ENDPOINT_LABEL: pKi
Just so you know, pKi here is -log10 of the concentration in molar units; reply with that number alone.

Look at this compound and give its reported pKi. Cl.Clc1ccc2[nH]c3c(c2c1)CN(CCc1ccccn1)CC3
6.99

----------
ASSAY_SYSTEM: UniProt P61169
EXPERIMENT: In vitro Dopamine receptor D2 affinity by using [3H]-Spiperone as the radioligand in rat limbic system at 1 uM concentration of compound; value may range from 4 to 15
Assay type: tissue-based
ENDPOINT_LABEL: Ki (nM)
Give a bare numeral; the unit nM is implied.

Request: Ki, test system UniProt P61169, entry Fc1ccc(-n2c3c(c4cc(F)ccc42)CN(CCCCc2ccncc2)CC3)cc1
7

----------
ASSAY_SYSTEM: D(2) dopamine receptor (Rattus norvegicus)
EXPERIMENT: In vitro Dopamine receptor D2 affinity by using [3H]spiperone as the radioligand in rat limbic system at 1 uM concentration of compound
Type: tissue-based
ENDPOINT_LABEL: pKi
Just so you know, pKi here is -log10 of the concentration in molar units; reply with that number alone.

Look at this molecule and give its reported pKi. Cl.Fc1ccc2[nH]c3c(c2c1)CN(CCc1cnccn1)CC3
7.20

----------
ASSAY_SYSTEM: D(2) dopamine receptor (Rattus norvegicus, UniProt P61169)
Sequence (P61169 whole entry): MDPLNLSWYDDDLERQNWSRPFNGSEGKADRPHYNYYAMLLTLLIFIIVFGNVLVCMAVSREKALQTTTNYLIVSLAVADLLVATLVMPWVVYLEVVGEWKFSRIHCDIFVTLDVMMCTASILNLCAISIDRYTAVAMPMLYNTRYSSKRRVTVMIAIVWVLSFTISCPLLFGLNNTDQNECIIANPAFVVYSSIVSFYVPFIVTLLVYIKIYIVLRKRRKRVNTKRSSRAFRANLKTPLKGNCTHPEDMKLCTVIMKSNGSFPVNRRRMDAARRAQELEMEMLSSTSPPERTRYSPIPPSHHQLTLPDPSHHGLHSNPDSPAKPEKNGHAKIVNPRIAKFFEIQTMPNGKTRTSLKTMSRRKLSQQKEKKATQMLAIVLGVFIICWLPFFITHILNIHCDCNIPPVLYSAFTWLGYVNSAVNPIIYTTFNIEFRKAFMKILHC
EXPERIMENT: In vitro Dopamine receptor D2 affinity by using [3H]spiperone as the radioligand in rat limbic system at 1 uM concentration of compound; value may range from 20 to 130
Type: tissue-based
ENDPOINT_LABEL: Ki (nM)
Give a bare numeral; the unit nM is implied.

Look at this molecule and give its reported Ki. c1cnc(N2CCN(CCCN3CCc4[nH]c5ccccc5c4C3)CC2)nc1
60

----------
ASSAY_SYSTEM: D(2) dopamine receptor (Rattus norvegicus, UniProt P61169)
EXPERIMENT: In vitro Dopamine receptor D2 affinity by using [3H]spiperone as the radioligand in rat limbic system at 1 uM concentration of compound; value may range from 3 to 10
Format: tissue-based
ENDPOINT_LABEL: pKi
Just so you know, pKi here is -log10 of the concentration in molar units; reply with that number alone.

Look at this compound and give its reported pKi. Cl.Fc1ccc(-n2c3c(c4cc(F)ccc42)CN(CCc2cnccn2)CC3)cc1
8.30

----------
ASSAY_SYSTEM: UniProt P61169
EXPERIMENT: In vitro Dopamine receptor D2 affinity by using [3H]spiperone as the radioligand in rat limbic system at 1 uM concentration of compound; value may range from 14 to 22
Type: tissue-based
ENDPOINT_LABEL: Ki (nM)
Give a bare numeral; the unit nM is implied.

Look at this compound and give its reported Ki. Fc1ccc(C(CCCN2CCc3[nH]c4ccc(F)cc4c3C2)c2ccc(F)cc2)cc1
18
